System: Staphylococcus aureus
Experiment: Antibacterial activity against Staphylococcus aureus ATCC 25923 assessed after 24 hrs by serial dilution method
Format: functional
Conditions: ATCC 25923, 24 h
Listed next: entries and their corresponding log10 of MIC.
recorded.endpoint: log10 of MIC (log10 of the value in µg/mL)

- compound: "O=C(Cc1ccc(Cl)cc1)Nc1ccc([N+](=O)[O-])cc1O"
  system.tested: "Staphylococcus aureus"
  log10 of MIC: 2.10
- compound: "O=C(Nc1ccc([N+](=O)[O-])cc1O)c1ccccc1"
  system.tested: "Staphylococcus aureus"
  log10 of MIC: 1.80
- compound: "Nc1ccc(O)c(NC(=O)c2ccc(F)cc2)c1"
  system.tested: "Staphylococcus aureus"
  log10 of MIC: 1.19
- compound: "O=C(Nc1ccc([N+](=O)[O-])cc1O)c1ccc(F)cc1"
  system.tested: "Staphylococcus aureus"
  log10 of MIC: 0.89
- compound: "Nc1ccc(O)c(NC(=O)c2ccccc2)c1"
  system.tested: "Staphylococcus aureus"
  log10 of MIC: 1.49
- compound: "CCc1ccc(C(=O)Nc2ccc([N+](=O)[O-])cc2O)cc1"
  system.tested: "Staphylococcus aureus"
  log10 of MIC: 1.80
- compound: "Cc1ccc(CC(=O)Nc2cc(N)ccc2O)cc1"
  system.tested: "Staphylococcus aureus"
  log10 of MIC: 1.49
- compound: "O=C(Nc1cc([N+](=O)[O-])ccc1O)c1ccc(F)cc1"
  system.tested: "Staphylococcus aureus"
  log10 of MIC: 0.89
- compound: "O=C(Nc1ccc([N+](=O)[O-])cc1O)c1ccc(Br)cc1"
  system.tested: "Staphylococcus aureus"
  log10 of MIC: 0.89
- compound: "Nc1ccc(NC(=O)c2ccc(F)cc2)c(O)c1"
  system.tested: "Staphylococcus aureus"
  log10 of MIC: 1.80
- compound: "Nc1ccc(NC(=O)Cc2ccc(Cl)cc2)c(O)c1"
  system.tested: "Staphylococcus aureus"
  log10 of MIC: 1.80
- compound: "CC(C)(C)c1ccc(C(=O)Nc2ccc(N)cc2O)cc1"
  system.tested: "Staphylococcus aureus"
  log10 of MIC: 1.19
- compound: "Nc1ccc(NC(=O)c2ccc(Br)cc2)c(O)c1"
  system.tested: "Staphylococcus aureus"
  log10 of MIC: 2.10
- compound: "CC1(C)S[C@@H]2[C@H](NC(=O)[C@H](N)c3ccccc3)C(=O)N2[C@H]1C(=O)O.O.O.O [AMPICILLIN TRIHYDRATE]"
  system.tested: "Staphylococcus aureus"
  log10 of MIC: 1.81
- compound: "Nc1ccc(NC(=O)Cc2ccc(F)cc2)c(O)c1"
  system.tested: "Staphylococcus aureus"
  log10 of MIC: 2.10

----------
System: Pseudomonas aeruginosa
Experiment: Antibacterial activity against Pseudomonas aeruginosa ATCC […] assessed after 24 hrs by serial dilution method

- molecule: "Nc1ccc(NC(=O)c2ccc(F)cc2)c(O)c1"
  MIC / µg/mL: 125
- molecule: "O=C(Cc1ccc(F)cc1)Nc1cc([N+](=O)[O-])ccc1O"
  MIC / µg/mL: 250
- molecule: "CC1(C)S[C@@H]2[C@H](NC(=O)[C@H](N)c3ccccc3)C(=O)N2[C@H]1C(=O)O.O.O.O [AMPICILLIN TRIHYDRATE]"
  MIC / µg/mL: 4

The values you see were collected from ChEMBL document CHEMBL1146365.
